assay: yeast display, Sf9 membrane polyspecificity reagent, FACS + sequencing; frameworks hold sequencing errors
readout.kind: polyreactivity (PSR sort gate)

item.sequence	polyreactivity (PSR sort gate)
QVQLVESGGGLVQAGGSLRLSCAASGSILTVYAMGWYRQAHGKERELVARIRSGDRTYYADSVKGRFTISRDNAKNTVYLQMNSLKPEDTAVYYCAAGSQRRYYHTNWDSFNYWGQGTQVTVSS	low polyreactivity
QVQLVESGGGLVQAGGSLRLSCAASGYTFTQNAMGWYRQAPGQERELVASLTSGGSTDYADSVKGRFTISRDNAKNTVYLQMNSVKPEDTAVYYCAAGTATDVASIGATKDYDYWGQVTQVTVSS	low polyreactivity
QVQLVESGGGLVQAGGSLRISCAASGSTFGSYVMGWYRQAPGKERELVAAICGSGGSTYYADSVKGRFTISRDNAKHTVYLQMNSLKPEDTAVYYCAAYVYFPWYGYWGQATQVTVSS	high polyreactivity
QVQLVESGGGLVQAGGSLRLSCAASGRIFRRNAMGWYRQAPGKERELVAAITSNGGRTYYADSVKGRFTISRDNAKNTVYLQMNSLKPEDTAVYYCAADTYDNDYYYWGQGTQVTVSS	high polyreactivity
QVQLVESGGGLVQAGGSLRLSCAASGSTFFGYDMGWSRQAPGKERELVATINSGGSTYYADSVKGRFTISRDNAKNTVYLQMNSLKPADTAVYYCAARPSYLYPYDRTGEYDYWGQGTQVTVSS	high polyreactivity

For each of the sequences below, note its polyreactivity (PSR sort gate).
1. QVQLVESGGGLVQAGGSLRLSCAASGSTFAYYAMGWYRQAPGKEREMVAAISSGGSTYYADSVKGRFTISRDNAKNTVYLQMNSLKPEDTAVYYCNAEVPGHYFDGWYFYDFDYWGQGTQVTVSS
2. QVQLVESGGGLVQAGGSLRLSCAASGFIFVKYAMGWYRQAPGKERELVAAITNGGSTYYADSVKGRFTISRDNAKNTVYLQMNSLKPEDTAVYYCAAQYHDWWRRLLYRSFLPFDYWGQGTQVTVSS
3. QVQLVESGGGLVQAGGSLRLSCAASGNILEGYTMGWYRQAPGKERELVATISGRGGSTYYADSVKGRFTISRDYAKNTVYLQMHSLKPEDTAVYYCNALPWALYDSTSIYYYWGQGTQVTVSS

Result:
low polyreactivity
low polyreactivity
low polyreactivity

Hi! Can you tell me polyreactivity (PSR sort gate) for each of these sequences?
1. QVQLVESGGGLVQAGGSLRLSCAASGRIFDDYAMGRYRQAPGKERELVAAISWSGGSTYYADSVKGRFTISRDNAKNTVYLQMNSQKPVDTAVYYCSAPYHSYKRIGYDYWGQGTQVSVSS
2. QVQLVESGGGLVQAGGSLRLSCAASGSTFYYNAMGWYRQAPGKERELVAAISGSGGSTYYADSVKGRFTISRDNAKNTVYLQMNSLKPEDTAVYYCAALYGPGREYDYWGQGTQVTVSS
3. QVQLVESGGGLVQAGGSLRLSCAASGITFGVYALGWSRQARGNERELVAAISVNGGSTYYADSVKGRYTISRDNAKNTVYLQMNSLKPEDTAVYYCAADVLYYIDDDSIIEYDYWGQGTQVTVSS

Result:
low polyreactivity
low polyreactivity
low polyreactivity

State the recorded polyreactivity (PSR sort gate) for every item in the following list.
1. QVQLVESGGGLVQAGGSLRLSCAASGFIFSSNTMGWYRQAPGKERELVADITSGARTNYADSVKGRFTISRDNAKNTVYLQMNSLKPEDTAVYYCAAYPHYIYFTWYPRYTYGYWGQGTQVTVSS
2. QVQLVESGGGLVQAGGSLRLSCAASGLIFSYNAMGWYRQAHGKETELVATIRRVGSTNYADSVKGRFTISRDNAKNTVYLQMNSLQPDDTAVYYCAAVYVRIGTRYGYWGQGTQVTVSS
3. QVQLVESGGGLVQAGGSLRLSCAASGSTFNQYTMGWYRQAPGKERELVAAISKSGGSTYYADSVKGRFTISRDNAKNTVYFQMNSLKPEVTAVYYCAADRYYDYRVDYWGQGTQVTVSS
4. QVQLVESGGGLLQAGGSLRLSCAASGSIFRRNAMGWYRQAPGTERELVACISGGGSTYYADSVKGRFTKSRDNAKNNVYLQLNSLNPEDTAVYYCATDKHYRWAVFDYWGQGTQVTVSS
5. QVQLVESGGGLVQAGGSLRLSCAASGFTFGNYAMYWVRQAPGKERELVAAINYSGGSTYYADSVKGRFTISRDNAKNTVYLQMNSLKPEDTAVYYCAADTYPASYDYWGQGTQVTVSS
6. QVQLVESGGGLVQAGGSLRLSCAGSGSTILYYVMGWYRQAPGKARELVAAITGTGGRTYYADSVKGRFTISRDNAKNTVYLQMNSLKPEDTAVYYCAADGKFEYDYWGQGTQVTVSS
7. QVQLVESGGGLVQAGGSRRLSCADSGSIFDQYTMGWSRQAPGKEWELVAGISSGGITNYADSVKGRFTLSRDNAKNTVYLQMTSLKPEDTAVYYCPADNWDLAEYDYWGQGPQVTVSS
8. QVQLVESGGGLVQAGGSLRLSCAASGVYAMGWYRQAPGQEREWVAAITSVGSTNYADSVKGRFTISRDNAKNTVYLQMNSLKPEDTAVFYCNTDRDTDELDYWGQGTQVTVSS

Result:
1: low polyreactivity; 2: high polyreactivity; 3: high polyreactivity; 4: low polyreactivity; 5: high polyreactivity; 6: low polyreactivity; 7: low polyreactivity; 8: low polyreactivity

For each listed entry, give its polyreactivity (PSR sort gate).
1. QVQLVESGGGLVQAGGSLRLSCSASGSTFEGYAMGWYRQAPGKERELVAAITSTGSTNYADSVKGRFTISRDNAKNTVYLQMNSLKPEDTAVYYCAGYPGRVYYFLGHDYWVQGTQVTVSS
2. QVQRVESGGGLVQAGGSLRLSCAASGSTFIGYDMRWYRQAPGTERELVAAISYSDGTYYADSVKGRFTISRDNAKNTVYLQMNSLKPADTAVYYCAADSLYYRYDYWGQGPQVTVSS

Result:
["low polyreactivity", "low polyreactivity"]

###

experiment: yeast display, Sf9 membrane polyspecificity reagent, FACS + sequencing; frameworks hold sequencing errors
readout.kind: polyreactivity (PSR sort gate)

Reference set, count: 5
item.sequence	endpoint.value
QVQLVESGGGLVQAGGSLRLTCAASGTIFYYNAMRWYRQAPGKERELVAAISWSGSRTYYADSVKGRFTISRDNAKITVYLQMNSLKPEDTAVYYCAAVVRFPFTYDYWGQGTQVTVSS	high polyreactivity
QVQLVVSGGGLVQAGCTHRISCAPSGRISKLYAMGWSIPAPGKERELVAAISWRGGSTYYADSVKGRFTISRDNAKITVYLQLYSLKPEDTAVYFCNKAYPADDDYWGQGTQVSVSS	low polyreactivity
QVQLVESGGGLVQAGGSLRLSCAASGSIFWDYAMGWYRQSPGKERELVAAISGSGTSTYYADSVKGRFTISRDNAKNTVYLQMNSLKPEDTAVYYCAARIWTGRGRKLGNGYDYWGQGTQVTVSS	low polyreactivity
QVQLVESGGGLVQAGGSLRISCAASGSIFDPYAMGWYRQAPGKERELVAAITSGGSTYYADSVKGRFTISRDNAKNTVYLQMNSLIPEDTAVYYCAKDFDIYYSKYDYWGQGTQVTVSS	low polyreactivity
QVQLVESGGGLVQAGGSLRLSCAASGSIFGAYAMGWYRQAPGKERELVAVISRSGGRTYYADSVKGRFTISRDNAKNTVYLQMNSLKPVDTAVYYCAADTRYVQYDYWGQGTQVTVSS	high polyreactivity

Lab note: each sequence below needs its polyreactivity (PSR sort gate) filled in.
1. QVQLVESGGGLVQAGGSLRLSCAASGSIFQRNAMGWYRQAPGKERELVAAISWSGGSTYYADSVKGRFTISRDNAKNSVSLQMNSVKPEDTAVYYCARYYRPYDWGQGTQVTVSS
2. QVQLVESGGGLVQAGGSLRLSCAASGRIFDRNTMGWYRQAPGKEREFVAAISGSGGRTYYADSVKGRFTISRDNAKNTVYLQMNSLKPEDTAVYYCAAYYSRQYVGYGYWGQGTQVTVSS
3. QVQLVESGGGLVQAGGSLRLSCAASGLIFEYYAMGWYRQAPGKERELVAVINWSGASTYYADSVKGRFTISRDNAKNTVYLQMNSLKPEDTAVYYCAAGVLITGLRFDYWGQGTQVTVSS
4. QVQLVESGGGLVQAGGSLRLSCAASGRIFTYYAMGWYRQAPGKERELVAAITSGGGSTSYADSVKGRFTISRDNAKNTVYLQMNSLKPEDTAVYYCATRRPFYGHNTYYWYNYWGQGTQVTVSS

Result:
["high polyreactivity", "high polyreactivity", "low polyreactivity", "high polyreactivity"]

###

assay: yeast display, Sf9 membrane polyspecificity reagent, FACS + sequencing; frameworks hold sequencing errors
readout.kind: polyreactivity (PSR sort gate)

Below, each entry is followed by its recorded polyreactivity (PSR sort gate) result.
item.sequence	polyreactivity (PSR sort gate)
QVQLVESGGGLLQAGGSLRLSCASSGRTFLVNAMGWYRQAPGKERELVAVITRVGSTNYADSVKGRFTISRDNAKNTVYLQMYSLKPEDTAVYYCAKQFSPYRSYGPVVRYDYWGQGTQLTVSS	low polyreactivity
QVQLVESGGGLVQAGGSLRLSCAASGIIFRYYAMGWYRQAPGKERELVAAITVNGGRTYYADSVKGRFTISRDNAKNNVYLQMNSLKPEVTAVYYCAAYPHRYRVTPYPSVVSLDNYWGQGTQVTVSS	low polyreactivity
QFQLVESGGGLDQAGGSLRLSCAASGFTFQYYAMGWYRQAPGKERELVAAITRGDSTNYADSVKGRFTISRDNAKNTVYLQMNSLKPEDTAVYYCAAGSAPSYWGGWYYERDYWGQGTQVTVSS	low polyreactivity
QVQLVESGGGLVQAGGSLRLSCAASGRTFSKYAMGWDRPAPGKERELVAGISRSGGSTYYADSVKGRFTISRDNAKNTVYLQMNSLKPEDTAVYYCAKRSVGGTGYYWGQGTQVTVSS	high polyreactivity

Moving on to another sequence below.
Ask: Please report polyreactivity (PSR sort gate) for the following sequence: QVQLVESGGGLVQAGGSLRLSCAASGRIFRWSVRGWYRQAPGKERELVAAISYGSGSTYYADSVKGRFTISRDNAKNTVYLQMNSLKPEDTAVYYCAADSQAARYHAYDYWGQGTQVTVSS
Result: high polyreactivity
